// data source = patent US20240043439A1

What follows is a record of IC50 for human C5a receptor (C5aR) (Homo sapiens (Human), UniProt P21730).

{"Molecule": "Cc1cccc(F)c1C(=O)N1[C@@H]2COC[C@@H]2C[C@H](C(=O)Nc2ccc(N(C)C)cc2)[C@@H]1c1ccc(NC2CCCC2)cc1", "IC50": "50 to 500 nM"}
{"Molecule": "Cc1cccc(F)c1C(=O)N1C(c2ccc(NC3CCOCC3)cc2)C(C(=O)Nc2ccc3c(cnn3C)c2)C[C@@H]2CCC[C@@H]21 (relative stereo)", "IC50": "< 50 nM"}
{"Molecule": "Cc1cccc(F)c1C(=O)N1C(c2ccc(N(C)C3CCCC3)cc2)C(C(=O)Nc2ccc3c(c2)CCN(C)C3)C[C@@H]2CCC[C@@H]21 (relative stereo)", "IC50": "> 5000 nM"}
{"Molecule": "Cc1cccc(F)c1C(=O)N1C2CCC[C@@H]2C[C@H](C(=O)Nc2cccnc2)[C@@H]1c1ccc(NC2CCCC2)cc1 (relative stereo)", "IC50": "50 to 500 nM"}
{"Molecule": "Cc1cccc(F)c1C(=O)N1[C@@H]2CCC[C@@H]2C[C@H](C(=O)Nc2ccc(F)c(C(F)(F)F)c2)[C@@H]1c1ccc(NC2CCCC2)cc1 (relative stereo)", "IC50": "2000 to 5000 nM"}
{"Molecule": "Cc1cccc(F)c1C(=O)N1[C@@H]2COC[C@@H]2C[C@H](C(=O)Nc2ccc3c(cnn3C)c2)[C@@H]1c1ccc(NC2CCCC2)cc1", "IC50": "< 50 nM"}

----------
IC50 listing for selected molecules.
- Target: C5aR (Homo sapiens (Human), UniProt P21730)
- Sequence (P21730 whole entry): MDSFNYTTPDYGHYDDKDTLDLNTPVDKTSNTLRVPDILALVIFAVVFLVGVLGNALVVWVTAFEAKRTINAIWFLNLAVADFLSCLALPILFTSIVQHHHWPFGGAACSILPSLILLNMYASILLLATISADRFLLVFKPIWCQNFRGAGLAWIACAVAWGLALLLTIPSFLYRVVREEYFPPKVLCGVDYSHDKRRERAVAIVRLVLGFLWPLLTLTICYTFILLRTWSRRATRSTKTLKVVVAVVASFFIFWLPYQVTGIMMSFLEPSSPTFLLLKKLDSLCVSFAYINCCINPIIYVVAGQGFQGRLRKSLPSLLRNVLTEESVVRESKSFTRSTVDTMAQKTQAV
- Test name: Inhibition of C5a-C5aR binding determined by cell migration assay (U937/C5aR cells)
- Assay type: cell-based
- Details: U937/C5aR cell migration towards human C5a, 180 min

{"Molecule": "Cc1ccc(NC(=O)[C@H]2C[C@H]3CCC[C@H]3N(C(=O)c3c(C)cccc3F)[C@H]2c2ccc(NC3CCCC3)cc2)cc1C#N (racemic) [Compound 62]", "Target": "C5aR (Homo sapiens (Human), UniProt P21730)", "IC50": "50 to 500 nM"}
{"Molecule": "Cc1cccc(F)c1C(=O)N1[C@@H]2CCC[C@@H]2C[C@H](C(=O)Nc2ccc3[nH]ncc3c2)[C@@H]1c1ccc(NC2CCOCC2)cc1 [Compound 96]", "Target": "C5aR (Homo sapiens (Human), UniProt P21730)", "IC50": "50 to 500 nM"}
{"Molecule": "Cc1ccc(NC(=O)[C@H]2CCCN[C@H]2c2ccc(N(c3nccc4cccnc34)C3CCCC3)cc2)cc1C(F)(F)F [Compound 168]", "Target": "C5aR (Homo sapiens (Human), UniProt P21730)", "IC50": "> 5000 nM"}
{"Molecule": "Cc1ccc(NC(=O)[C@H]2CC[C@@H]3CCc4cccc(F)c4C(=O)N3C2c2ccc(NC3CCCC3)cc2)cc1C(F)(F)F (relative stereo) [Compound 41]", "Target": "C5aR (Homo sapiens (Human), UniProt P21730)", "IC50": "50 to 500 nM"}
{"Molecule": "Cc1cccc(F)c1C(=O)N1CCC[C@H](c2nc3ccc(C(C)(C)C)cc3[nH]2)[C@@H]1c1ccc(NC2CCCC2)cc1 [Compound 180]", "Target": "C5aR (Homo sapiens (Human), UniProt P21730)", "IC50": "< 50 nM"}
{"Molecule": "Cc1ccc(NC(=O)[C@H]2CCCN(C(=O)c3c(C)cccc3F)[C@H]2C2CCC3(CCOC3)CC2)cc1C(F)(F)F (relative stereo) [Compound 203]", "Target": "C5aR (Homo sapiens (Human), UniProt P21730)", "IC50": "500 to 2000 nM"}
{"Molecule": "Cc1ccc(NC(=O)C2C[C@H]3CCC[C@H]3N(C(=O)C3CCOCC3)[C@H]2c2ccc(NC3CCCC3)cc2)cc1C(F)(F)F (relative stereo) [Compound 111]", "Target": "C5aR (Homo sapiens (Human), UniProt P21730)", "IC50": "50 to 500 nM"}
{"Molecule": "Cc1cccc(F)c1C(=O)N1[C@@H]2COC[C@@H]2C[C@H](C(=O)Nc2ccc(N(C)C)cc2)[C@@H]1c1ccc(NC2CCCC2)cc1 [Compound 124]", "Target": "C5aR (Homo sapiens (Human), UniProt P21730)", "IC50": "50 to 500 nM"}
{"Molecule": "Cc1ccc(NC(=O)C2C[C@@H]3CN(C)C[C@@H]3N(C(=O)c3c(C)cccc3F)C2c2ccc(N(C)C3CCCC3)cc2)cc1C(F)(F)F (relative stereo) [Compound 144]", "Target": "C5aR (Homo sapiens (Human), UniProt P21730)", "IC50": "50 to 500 nM"}
{"Molecule": "Cc1cccc(F)c1C(=O)N1C(c2ccc(NC3CCCC3)cc2)C(C(=O)Nc2cnc3cnn(C)c3c2)C[C@@H]2COC[C@@H]21 (relative stereo) [Compound 189]", "Target": "C5aR (Homo sapiens (Human), UniProt P21730)", "IC50": "50 to 500 nM"}
{"Molecule": "Cc1ccc(NC(=O)C2C[C@@H]3COC[C@@H]3N(C(=O)c3c(C)cccc3F)C2c2ccc(NC3CCCC3)cc2)cc1C(F)(F)F (relative stereo) [Compound 118]", "Target": "C5aR (Homo sapiens (Human), UniProt P21730)", "IC50": "< 50 nM"}
{"Molecule": "Cc1cccc(F)c1C(=O)N1[C@@H]2CCC[C@@H]2C[C@H](C(=O)Nc2ccc3c(ccn3C)c2)[C@@H]1c1ccc(NC2CCOCC2)cc1 [Compound 98]", "Target": "C5aR (Homo sapiens (Human), UniProt P21730)", "IC50": "< 50 nM"}
{"Molecule": "Cc1cccc(F)c1C(=O)N1[C@@H]2CCC[C@@H]2C[C@H](C(=O)Nc2cnn(C)c2)[C@@H]1c1ccc(NC2CCCC2)cc1 [Compound 54]", "Target": "C5aR (Homo sapiens (Human), UniProt P21730)", "IC50": "50 to 500 nM"}
{"Molecule": "Cc1ccc(NC(=O)C2C[C@@H]3CCC[C@@H]3N(C(=O)c3cocn3)C2c2ccc(NC3CCCC3)cc2)cc1C(F)(F)F (relative stereo) [Compound 110]", "Target": "C5aR (Homo sapiens (Human), UniProt P21730)", "IC50": "50 to 500 nM"}
{"Molecule": "Cc1cccc(F)c1C(=O)N1[C@@H]2CCC[C@@H]2C[C@H](C(=O)Nc2ccc3ncoc3c2)[C@@H]1c1ccc(NC2CCCC2)cc1 (racemic) [Compound 67]", "Target": "C5aR (Homo sapiens (Human), UniProt P21730)", "IC50": "50 to 500 nM"}
{"Molecule": "Cc1ccc(NC(=O)C2C[C@H]3CCC[C@H]3N(C(=O)c3cncnc3)C2c2ccc(NC3CCCC3)cc2)cc1C(F)(F)F (relative stereo) [Compound 115]", "Target": "C5aR (Homo sapiens (Human), UniProt P21730)", "IC50": "50 to 500 nM"}
